Biological target: rat mGlu 5a receptor (Rattus norvegicus (Rat), UniProt P31424)
Sequence (P31424 other isoform, or with tags, fused parts or gaps): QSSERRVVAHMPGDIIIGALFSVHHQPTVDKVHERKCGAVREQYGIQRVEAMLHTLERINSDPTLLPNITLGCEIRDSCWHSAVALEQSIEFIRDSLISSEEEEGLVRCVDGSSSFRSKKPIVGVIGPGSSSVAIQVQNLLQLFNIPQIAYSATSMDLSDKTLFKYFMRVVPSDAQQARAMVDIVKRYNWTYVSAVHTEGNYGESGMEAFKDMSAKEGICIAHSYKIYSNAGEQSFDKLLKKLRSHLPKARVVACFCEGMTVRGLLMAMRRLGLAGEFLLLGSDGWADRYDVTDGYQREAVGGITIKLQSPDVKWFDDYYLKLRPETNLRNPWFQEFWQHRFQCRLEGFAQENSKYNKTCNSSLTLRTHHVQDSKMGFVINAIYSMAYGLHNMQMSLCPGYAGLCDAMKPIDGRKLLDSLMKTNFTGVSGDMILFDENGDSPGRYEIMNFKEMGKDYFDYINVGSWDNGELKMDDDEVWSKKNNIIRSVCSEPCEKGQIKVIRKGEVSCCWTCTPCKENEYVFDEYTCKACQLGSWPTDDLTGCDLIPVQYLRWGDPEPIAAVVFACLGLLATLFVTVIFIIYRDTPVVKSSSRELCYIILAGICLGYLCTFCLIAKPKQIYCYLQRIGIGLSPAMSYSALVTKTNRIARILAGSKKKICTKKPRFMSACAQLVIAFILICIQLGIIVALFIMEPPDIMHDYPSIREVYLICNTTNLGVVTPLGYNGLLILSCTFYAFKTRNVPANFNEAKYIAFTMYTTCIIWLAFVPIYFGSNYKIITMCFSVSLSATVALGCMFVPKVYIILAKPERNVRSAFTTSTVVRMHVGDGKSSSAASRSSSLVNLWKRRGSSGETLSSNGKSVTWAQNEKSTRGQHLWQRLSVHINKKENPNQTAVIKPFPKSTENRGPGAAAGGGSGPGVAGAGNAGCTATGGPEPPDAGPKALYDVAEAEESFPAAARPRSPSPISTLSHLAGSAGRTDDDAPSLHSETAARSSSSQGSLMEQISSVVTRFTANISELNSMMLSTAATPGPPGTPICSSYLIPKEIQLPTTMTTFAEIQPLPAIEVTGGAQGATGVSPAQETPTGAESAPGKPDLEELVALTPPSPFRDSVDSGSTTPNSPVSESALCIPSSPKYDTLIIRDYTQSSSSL
Assay: MPEP binding / [Ca2+]i FLIPR measurement on mGlu 5a transfected EBNA cells, antagonists tested against 10 μM glutamate
Settings: rat mGlu 5a receptor transiently transfected into EBNA cells; Ki calculated from IC50
experimentalEndpoint: Ki (nM)

[A] CN1C(=O)C(C)(C)N=C1c1ncc(C#Cc2ccccc2)cn1 [Example 5]
[B] CN1C(=O)C(C)(C)N=C1c1ccc(C#Cc2cccc(Cl)c2)cn1 [Example 3]
Pick one, A or B : lowest reported Ki. Let me know the label of the one you choose. B
(B: 16 nM, A: 281 nM)
